target of assay: Androgen receptor (Homo sapiens)
Sequence (P10275 whole entry): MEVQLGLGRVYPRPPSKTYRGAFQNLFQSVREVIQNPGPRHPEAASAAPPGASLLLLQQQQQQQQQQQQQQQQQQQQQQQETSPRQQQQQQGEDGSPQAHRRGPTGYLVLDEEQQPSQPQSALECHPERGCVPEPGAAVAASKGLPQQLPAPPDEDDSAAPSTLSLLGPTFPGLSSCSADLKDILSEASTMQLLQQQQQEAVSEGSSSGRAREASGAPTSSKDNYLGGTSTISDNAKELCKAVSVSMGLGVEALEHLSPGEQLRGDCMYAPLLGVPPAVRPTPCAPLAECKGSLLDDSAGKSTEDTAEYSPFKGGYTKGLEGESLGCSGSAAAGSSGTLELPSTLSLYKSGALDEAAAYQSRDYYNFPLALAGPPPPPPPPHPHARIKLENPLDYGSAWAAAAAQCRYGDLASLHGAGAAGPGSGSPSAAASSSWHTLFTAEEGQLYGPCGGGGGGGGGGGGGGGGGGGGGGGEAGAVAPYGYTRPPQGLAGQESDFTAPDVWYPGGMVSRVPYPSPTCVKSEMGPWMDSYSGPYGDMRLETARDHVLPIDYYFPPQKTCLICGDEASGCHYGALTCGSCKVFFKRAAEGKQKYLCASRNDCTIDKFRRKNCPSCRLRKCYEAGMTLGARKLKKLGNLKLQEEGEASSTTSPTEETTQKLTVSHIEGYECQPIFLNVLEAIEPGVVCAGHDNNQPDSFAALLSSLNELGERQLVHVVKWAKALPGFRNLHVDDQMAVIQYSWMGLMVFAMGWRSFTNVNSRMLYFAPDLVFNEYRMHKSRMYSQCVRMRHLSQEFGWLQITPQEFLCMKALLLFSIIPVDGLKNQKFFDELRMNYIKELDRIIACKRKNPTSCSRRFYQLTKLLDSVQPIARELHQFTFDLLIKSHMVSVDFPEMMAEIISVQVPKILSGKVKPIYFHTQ
pKi: −log10 of the molar value.
Please note: 1 applies when pKi is 9 or greater, and 0 applies otherwise.

Consider the following illustrative entries.
>>> class("Cc1c(/N=C2\\N(C)C[C@@H]3[C@H](O)CCN23)ccc(C#N)c1Cl")
0
>>> class("Cc1c(/N=C2\\NC[C@@H]3[C@H](O)CCN23)ccc(C#N)c1Cl")
0
>>> class("Cc1c(/N=C2\\O[C@H](C(F)(F)F)[C@@H]3[C@H](O)CCN23)ccc(C#N)c1Cl")
0
>>> class("Cc1c(/N=C2\\O[C@@H](C(F)(F)F)[C@@H]3[C@@H](O)CCN23)ccc(C#N)c1Cl")
1
>>> class("Cc1c(N2C(NC#N)N3CC[C@H](O)[C@H]3[C@@H]2C)ccc(C#N)c1Cl (some centres not stated)")
0
>>> class("Cc1c(N2C[C@@H]3[C@H](O)CCN3C2=O)ccc(C#N)c1Cl")
0

Determine whether measured pKi meets or exceeds 9 for Cc1c(/N=C2\OC[C@@H]3[C@@H](O)CCN23)ccc(C#N)c1Cl 1

Determine whether measured pKi meets or exceeds 9 for Cc1c(/N=C2\N(C(N)=O)C[C@@H]3[C@H](O)CCN23)ccc(C#N)c1Cl 0

Determine whether measured pKi meets or exceeds 9 for Cc1c(/N=C2\O[C@H](C(F)(F)F)[C@@H]3[C@@H](O)CCN23)ccc(C#N)c1Cl 1

Determine whether measured pKi meets or exceeds 9 for Cc1c(/N=C2\O[C@@H](C(F)(F)F)[C@@H]3[C@H](O)CCN23)ccc(C#N)c1Cl 1

----------
assay notes: Aqueous solubility of the compound
Assay type: physicochemical
quantity measured: solubility (mg/mL)
Give bare numbers, in mg/mL.

I have this compound here, Cc1c(N2C(=O)[C@@H]3[C@H](O)CCN3C2=O)ccc(C#N)c1Cl , and I need its recorded solubility. 0.019

----------
target of assay: Androgen receptor (Rattus norvegicus)
Sequence (P15207 whole entry): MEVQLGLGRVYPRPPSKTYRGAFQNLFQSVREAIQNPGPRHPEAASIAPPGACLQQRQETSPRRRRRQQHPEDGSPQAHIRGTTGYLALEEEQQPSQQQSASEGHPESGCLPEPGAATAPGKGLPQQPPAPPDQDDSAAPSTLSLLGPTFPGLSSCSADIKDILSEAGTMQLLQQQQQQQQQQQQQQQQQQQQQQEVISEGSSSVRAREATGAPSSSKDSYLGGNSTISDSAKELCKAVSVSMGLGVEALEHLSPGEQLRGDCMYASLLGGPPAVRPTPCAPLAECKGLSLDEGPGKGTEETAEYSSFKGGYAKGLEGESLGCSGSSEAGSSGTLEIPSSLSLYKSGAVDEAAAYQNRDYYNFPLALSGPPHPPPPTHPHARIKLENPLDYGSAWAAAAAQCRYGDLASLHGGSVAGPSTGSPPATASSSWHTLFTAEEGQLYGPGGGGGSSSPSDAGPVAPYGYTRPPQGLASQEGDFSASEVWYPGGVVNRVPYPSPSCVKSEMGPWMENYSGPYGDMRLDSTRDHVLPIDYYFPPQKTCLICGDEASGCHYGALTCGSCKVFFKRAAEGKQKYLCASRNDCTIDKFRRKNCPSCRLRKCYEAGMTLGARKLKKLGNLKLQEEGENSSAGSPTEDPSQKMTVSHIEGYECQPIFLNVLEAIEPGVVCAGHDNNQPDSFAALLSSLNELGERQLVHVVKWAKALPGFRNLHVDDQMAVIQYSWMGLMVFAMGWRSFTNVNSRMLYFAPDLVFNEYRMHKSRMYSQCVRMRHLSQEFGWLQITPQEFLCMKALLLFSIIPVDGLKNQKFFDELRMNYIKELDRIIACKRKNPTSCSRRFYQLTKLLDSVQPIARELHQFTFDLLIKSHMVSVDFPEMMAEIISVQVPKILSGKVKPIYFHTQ
assay notes: […] at rat AR expressed in mouse skeletal muscle C2C12 cells assessed as transcriptional activation after 24 hrs by androgen-specific response element driven luciferase reporter gene assay
Format: functional, cell-based
quantity measured: EC50 (nM)
One number for each entry, in nM.

I have this compound here, Cc1c(/N=C2\NC[C@@H]3[C@H](O)CCN23)ccc(C#N)c1Cl , and I need its recorded EC50. 1800
